- target-or-test-system: CAI (Homo sapiens, UniProt P00915);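 also: human CAI expressed in E. coli, ANS fluorescence thermal shift with Kd fitted from melting temperature versus ligand concentration, intrinsic values correct for deprotonated sulfonamide and Zn-water CA fractions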
- Construct: made in house; host or cells: E. coli
- Sequence (P00915 whole entry): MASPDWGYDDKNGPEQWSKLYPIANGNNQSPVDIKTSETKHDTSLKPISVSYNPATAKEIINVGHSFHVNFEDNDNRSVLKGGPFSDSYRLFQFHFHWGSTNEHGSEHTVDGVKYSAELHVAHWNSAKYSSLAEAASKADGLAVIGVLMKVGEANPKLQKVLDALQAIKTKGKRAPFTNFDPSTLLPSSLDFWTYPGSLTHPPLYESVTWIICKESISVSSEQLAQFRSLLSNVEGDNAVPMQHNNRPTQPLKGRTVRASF
- method-description: biochemical
- Assay type: binding
- condition-set: FTSA, pH 7.0, 37 °C; read-out: Observed Dissociation Constant (Kd_obs), CAI
pKd: −log10 of the molar value.
measure-name: pKd

NNC(=O)CC(CNc1ccc(S(N)(=O)=O)cc1)C(=O)NN (centres unmarked) | 4.11
CC(=NNC(=O)CC(CNc1ccc(S(N)(=O)=O)cc1)C(=O)NN=C(C)c1ccccc1)c1ccccc1 (centres unmarked) | 5.08
Cc1csc(N(CCC(=O)NN=Cc2ccccc2)c2ccc(S(N)(=O)=O)cc2)n1 | 5.48
Cn1c(CC(CNc2ccc(S(N)(=O)=O)cc2Cl)c2n[nH]c(=S)n2C)n[nH]c1=S (centres unmarked) [Compound 24b] | 5.54
COC(=O)CCN(c1ccc(S(N)(=O)=O)cc1)c1nc(C)cs1 | 7.43

I: NS(=O)(=O)c1ccc(NCC(CC(=O)NN=Cc2cccc([N+](=O)[O-])c2)C(=O)NN=Cc2cccc([N+](=O)[O-])c2)c(Cl)c1 (centres unmarked) [Compound 16b]
II: NS(=O)(=O)c1ccc(NCC(CC(=O)NN=Cc2ccc(C(=O)O)cc2)C(=O)NN=Cc2ccc(C(=O)O)cc2)cc1 (centres unmarked) [Compound 18a]
III: NS(=O)(=O)c1ccc(NCC(CC(=O)NN=Cc2cccc(O)c2)C(=O)NN=Cc2cccc(O)c2)c(Cl)c1 (centres unmarked)
Prompt: Sequence the entries by pKd, beginning with the highest number. Thanks in advance for listing the labels in the requested order.
Completion: III, I, II
